Below, each entry is listed alongside its reported Mean fluorescence intensity ratio.
# TESTED_ON: T1, mouse CADM3 (mouse, UniProt Q99N28 23-396)
# T1 construct: Full-length gene expressed transiently on Expi293F cells; also called mouse CADM3/Expi293F cells; Mouse CADM3-expressing cells
# T1 sequence: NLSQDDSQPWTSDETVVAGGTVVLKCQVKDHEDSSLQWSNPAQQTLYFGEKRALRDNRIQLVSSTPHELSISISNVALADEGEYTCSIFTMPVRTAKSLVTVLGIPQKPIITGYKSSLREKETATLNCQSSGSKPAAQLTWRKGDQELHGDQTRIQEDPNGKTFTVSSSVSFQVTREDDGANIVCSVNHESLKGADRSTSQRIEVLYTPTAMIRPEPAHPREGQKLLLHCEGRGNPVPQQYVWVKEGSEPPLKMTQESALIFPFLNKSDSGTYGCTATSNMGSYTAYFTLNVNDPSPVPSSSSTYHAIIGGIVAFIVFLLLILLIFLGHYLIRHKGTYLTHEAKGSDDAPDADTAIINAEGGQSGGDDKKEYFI
# EXPERIMENT_SUMMARY: flow cytometry, 10 ug/mL, mouse CADM3/Expi293F vs parent Expi293F cells
# Description: After washing with SB, the cells were suspended in SB, and the fluorescence intensity of each cell was measured using a flow cytometer FACS CANTO II (manufactured by Becton, Dickinson and Company). Note that as a negative control, 10 μg/mL of the anti-AVM antibody was used. The detection results were analyzed, and a mean fluorescence intensity (MFI) was calculated using a geometric mean. […]
Give a plain numeric answer without units written out.

Below, 2 binders whose answers are already recorded.
BINDER	Mean fluorescence intensity ratio
anti-AVM antibody (antibody, V domains shown, Negative control; also called chimeric anti-Avermectin (AVM) antibody; anti-AVM-IgG4 antibody) VH: EVQLVESGGGLVQPGRSLKLSCAASGFTFSNYAMAWVRRAPTKGLEWVASISNGGGNTYYRDSVKGRFTISRDDAKNTLYLQMDSLRSEDTATYYCARHGNYIYYGSFFDYWGQGVMVTVSS VL: QFVLSQPNSVSTNLGSTVKLSCKRSTGNIGSNYVSWYQQHEGRSPTTMIYRDDKRPDGVPDRFSGSIDRSSDSALLTINNVQTEDEADYFCQSYSSGINIFGGGTKLTVLG	1.02
iCADM3_3R1-L11_06 VHH-hG4PE(R409K) (Fc fusion, also called iCADM3-3R1-L11_06 humanized antibody; not shown: Hinge-CH2-CH3 region of the human IgG4 heavy chain constant region (IgG4 variant)) QVQLVESGGGLVQAGGSLRLSCAASGSIFSFNAMGWYRQAPGKQRGLVAVITSGGYTNYADSVKGRFTISRDNSKNTVFLQMNSLRAEDTAVYYCNAEGVYSDYVIMNYWGQGTLVTVSS	42.2

Query binder follows.
Record summary for iCADM3_3R1-L11_02 VHH-hG4PE(R409K) (Fc fusion, also called iCADM3-3R1-L11_02 humanized antibody; not shown: Hinge-CH2-CH3 region of the human IgG4 heavy chain constant region (IgG4 variant)) EVQLVESGGGLIQPGGSLRLSCAASGSTVSFNAMGWYRQAPGKGRVLVAVITSGGYTNYADSVKGRFTISRDNSKNTVYLQMNSLRAEDTAVYYCNAEGVYSDYVIMNYWGQGTLVTVSS : reported Mean fluorescence intensity ratio = 27.9

Source: patent US20210147541A1
